The values you see were collected from patent US20220306762A1.

Each item that follows carries a reported FACs 10 ug/ml (percent gated).
- measurement-target: T1, human CD38 on transiently transfected Expi293 cells (Origene #SC321273) (human, UniProt P28907 1-300)
- T1 construct: whole, on cells; also called Human (FACs)
- assay-explanation: flow cytometry, transfected Expi293 cells;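 further: antibody binding to Expi293 cells transiently expressing human or murine CD38, antibodies applied at 10 ug/ml for 60 min on ice, read by flow cytometry as percent gated cells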
Numeric only. Scale: %

>>> measured("40566p1.B3 (scFv, V domains shown, tested as scFv-Fc supernatant) VH: DVQLVESGGGVVRPGESLRLSCAASGFTFDNYDMTWVRQAPGEGLEWVSFISSRGTFTYYTDSVRGRFTISRDNSKNTLYLEMNSLRAEDTAIYYCAKDSGEYYFFDYWGLGTLVTVSS VL: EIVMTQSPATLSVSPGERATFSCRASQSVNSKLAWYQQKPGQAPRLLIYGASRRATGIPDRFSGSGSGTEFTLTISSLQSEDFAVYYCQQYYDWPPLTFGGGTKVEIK")
21.1
>>> measured("40566p1.G9 (scFv, V domains shown, tested as scFv-Fc supernatant) VH: DVQLVESGGGVVRPGESLRLSCAASGFTFDNYDMTWVRQAPGEGLEWVSFISSRGTFTYYADSVKGRFTISRDNSKNTLYLQMNSLRAEDTAIYYCAKDSGEYYFFDYWGLGTLVTVSS VL: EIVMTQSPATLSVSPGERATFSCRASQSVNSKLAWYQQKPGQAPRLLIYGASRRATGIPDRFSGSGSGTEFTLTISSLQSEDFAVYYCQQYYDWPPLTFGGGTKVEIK")
17.8
>>> measured("40769p1.1.B12 (scFv, V domains shown, tested as scFv-Fc supernatant) VH: EVQLLESGGGLIQPGGSLRLSCTASGFDFSSYGMHWVRQAPGKGLEWVGIISDSGGTTYYADSVKGRFTISRDNSKNTMYLQMNSLRAEDTALYYCASYIMDVWGQGITVTVSS VL: QSVLTQPPSASGTPGQRVTISCSGSSSNVGGNSVYWYQQLPGTAPKLLFYGNHRRPSGVPDRFSGSKSGTSASLAISGLQSEDEADYYCAVWDDSLNAWVFGGGTKLTVL")
71.1
>>> measured("40596p1.G10 (scFv, V domains shown, tested as scFv-Fc supernatant) VH: EVQLLESGGGLVQPGGSLRLSCAAPGFDFSKNAMSWVRQAPGKGLEYVAGSGWSGSFIFYADSVKGRFTVSRDNSENTLYLQMSSLRAEDTAVYYCAKNPGFGEMDVWGQGTTVTVSS VL: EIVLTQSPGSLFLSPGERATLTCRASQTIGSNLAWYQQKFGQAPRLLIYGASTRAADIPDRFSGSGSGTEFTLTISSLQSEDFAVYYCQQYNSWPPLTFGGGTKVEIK")
68

Given the binder 40769p1.2.F9 (scFv, V domains shown, tested as scFv-Fc supernatant) VH: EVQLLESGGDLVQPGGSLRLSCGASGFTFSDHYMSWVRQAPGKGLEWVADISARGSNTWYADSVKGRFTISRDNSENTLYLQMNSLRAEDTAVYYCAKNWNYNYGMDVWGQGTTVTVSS VL: QSVLTQAPSASGTPGQRVTISCSGSSIQNNYVSWYQQLPGTAPKLLIYRNFERPSGVPDRFSASKSGTSASLAISGLQSGDEADYYCASWDDSLNWVFGGGTKLTVL , write its reported FACs 10 ug/ml (percent gated).
79.4
